# Test system: Fibroblast
# PROTOCOL_SUMMARY: Multiplex assay against human fibroblast
# Type: toxicity, cell-based
# MEASUREMENT_SETUP: 12 h, 1 µM, compound concentration 1 uM, replicate 1
ENDPOINT: Population Healthy Nuclei (%)

The following compounds have reported results that may help.
INSERT INTO results (compound, reported_value) VALUES
  ('Cc1sc2c(c1C)C(c1ccc(Cl)cc1)=N[C@@H](CC(=O)NCCCCCCCCNC(=O)COc1cccc3c1C(=O)N(C1CCC(=O)NC1=O)C3=O)c1nnc(C)n1-2 (stereo partly specified)', '72%'),
  ('O=C(CCCc1ccccc1)Nc1nc2ccccc2c(=O)s1', '66%'),
  ('CC(C)COc1ccc(CNC(=O)N(Cc2ccc(F)cc2)C2CCN(C)CC2)cc1', '62%'),
  ('Cc1cnc(-c2cc(N3CCN(C(=O)CCS(C)(=O)=O)CC3)ncc2Cl)c(C)c1', '71%');

Hi team, please reply with Population Healthy Nuclei (%) for each item in this list.
1. CC[C@@H](C)Nc1nc(C)nc2c(-c3ccc(OC)nc3C)c(C)nn12
2. Cl.N=C(N)NC(=O)Cc1c(Cl)cccc1Cl [GUANFACINE HYDROCHLORIDE]

66%
62%
